Each recorded value in this set is attributed to the nanobody polyreactivity screen of Harvey et al. (2022).

- assay.summary: yeast display, Sf9 membrane polyspecificity reagent, FACS + sequencing; frameworks hold sequencing errors
assay.metric: polyreactivity (PSR sort gate)

sequence.code	measurement
QGQLVESGGGLVQAGGSLRLSCAASGSTFGYNVMGWYRQAPGKERELVAAINYSGVRTYYADSVKGRFTISRDNAKNTVYLQMNSLKPEDTAVYYCNATPTRAVGPYQYNYWGQGTQVTVSS	high polyreactivity
QVQLVESGGGLVQAGGSLRLTCAASGPIFVLYAMGWYRQAPGKERELVAAISTSGGSTYYADSVKGRFTISRDNAKNTVYLQMNSLKPEDTAVYYCAADRSARFLFIQYYPYGMDYWGQGTQVTVSS	high polyreactivity

----------
- assay.summary: yeast display, Sf9 membrane polyspecificity reagent, FACS + sequencing; frameworks hold sequencing errors

sequence.code	polyreactivity (PSR sort gate)
QVQLVESGGGLVQAGGSLRLSCAASGRIFDLYAMGWYRQAPGKERELVASITTIGGRTYYADSVKGRFTISRDNAKNTVYLQMNSLKPEDTAVYYCAKSRWLYTTRSGYDYWGQGTQVTVSS	high polyreactivity
QVQLVESGGGLVQAGGSLRLSCAASGRIGKYAMGWYRQAPGKERELVAAITSGGSTTYADSVKGRITISRDNAKNTVYLQMNSLNPEDTAVYYCKALRRARYTRKGYEYWGQGTQVTVSS	high polyreactivity

----------
- assay.summary: yeast display, Sf9 membrane polyspecificity reagent, FACS + sequencing; frameworks hold sequencing errors
assay.metric: polyreactivity (PSR sort gate)

sequence.code	measurement
QVHLVESGGGLVQAGGSLRLSCAASGFTFRRNAMGWYRQAPGKERELVAAITRSGGVTYYADSVKGRFTISRDNAKNTVYLQMNSMKPEDTAVYYCATQARLYGGYDRYAGSYDYWGQGTQVTVSS	high polyreactivity
QVQLVESGGGLVQAGGSLRLSCAASGSIFSLYAMGWYRQAPGKERELVAAITTSGGRTYYADSVKGRFTISRDNAKNTVYLQMNSLKPVDTAVYYCAKRYSTPYLTDNFLSGPGYYYWGQGTQVTVSS	high polyreactivity

----------
- assay.summary: yeast display, Sf9 membrane polyspecificity reagent, FACS + sequencing; frameworks hold sequencing errors

sequence.code	polyreactivity (PSR sort gate)
QVQLVESGGGLVQAGGSLRLSCAASGSIFTTYAMGWSRQAPGKERELVAAITTSGGRTYYADSVKGRFTISRDNAKNTVYLQMNSLKPDDTAVYYCNAVRGGRYGLDYWGQGTQVTVSS	high polyreactivity
QVQLVESGGGLVQAGGSLRLSCAASGFTFRRNAMGWYRQAPGKERELVAAISSSGGSTSYADSVKGRFTISRDNAKNTVYLQMNSLKPEDTAVYYCAVEVASYDRRPSEYYWGQGTQVTVSS	high polyreactivity
QVQLVESGGGLVQAGGSLRLSCAASGSTFPYNAMGWYRQAPGKEREFVAAITSDDTTNYADSVKGRFTISRDNAKKTVYLQMNSLKPEDTAVYYCAAEYRYPYLRGAGDYWGQGTQVTVSS	low polyreactivity
QVQLVESGGGLVQAGGSLRLSCAASGYIFYGYVMGWYRQAPGKERELVAGITYSGGGGTHYADSVKGRFTISRDNAKNTVYLQMNSLKPEDNAVYYCAKADPQLNRTYYSYGMDYWGQGTQVTVSS	low polyreactivity
QVQLVESGGGLVQAGGSLRLSCAASGFTFYRYAMGWYRQAPGKERELVATISASGGSTYYADSVKGRFTISRDNAKNTVYLQMNSVKPEDTAVYYFAVRYKSWYGFNYWGQGTQVTVSS	high polyreactivity
QVQLVESGGGLVQAGGSLRLSCAASGITFPGYAMGWYRQAPGKERELVAAISDSGSSTYYADSVKGRFTISRDNAKNTVYLQMNSLKPEDTAVYYCAAVSGFYDQYDYWGQGTQVTVSS	low polyreactivity
QVQLVESGGGLVQAGGSLRLSCAASGSTFKRNAMGWYRQAPGKERELVAAISFRGGSTYYADSVKGRFTISRDNAKNTVYLQMNSLKPEDTAVYSCAAGIYRIRGGGISFDYWGQGTQVTVSS	high polyreactivity
QVQLVESGGGLVQAGGSLRLSCAASGSSFRAYAMGWYRQAPGKERELVAVITYSGDRTYYADSVKGRFTISRDNAKNTVYLQMNSLKPEDTAVYYCAADLQYWHSYSYDDYYYWGQGTQVTVSS	low polyreactivity

----------
- assay.summary: yeast display, Sf9 membrane polyspecificity reagent, FACS + sequencing; frameworks hold sequencing errors

sequence.code	polyreactivity (PSR sort gate)
QVQLVESGGGLVQAGGSLRLSCAASGSTFGRYAMGWYRQAPGKERELVAAISESDGSTYYADSVKGRFTISRDNAKNTVYLQMNSLKPEDTAVYYCAAEWTHYWWYQYDYWGQGTQVTVSS	high polyreactivity
QVQLVESWGGLVQAGGSLRLSCAASGNLFADYAMGWYRQAPGTERELVAAISRGGITSYADSVKGRFTISRDNAKNTVYLQMNSLKPEDTAVYYCATDRYDVYDSLGFGYWGQGSQVTVSS	low polyreactivity
QVQLEESGGGLVQAGGSLRLSCAASGRIFYWYAMGWYRQAPGKERELVATISSAGTTYYADSVKGRFTISRDNAKNTVYLQMNSLKPEDTAVYYCAVPRVGLHGIGSDYWGQGTQVTVSS	high polyreactivity
QVQLVESGGGLVQAGGSLRLSCAASGSTFYYYAMGWYRPAPGKEREMVAAINSGGRTNYADSVKGRFTISRDNAKNSVYLQMNSLKPEDTAVYYCAKRTYPYGTYRSVWGYDYWGQGTQVTVSS	low polyreactivity
QVQLVESGGGLVQAGGSLRLSCAASGSNFSYNAMGWYRQAPGKERELVATITTGGRTSYADSVKGRFTISRDNAKNTVYLQMNSLKPEDTAVYYCAAVGRFSSRPRVVYYGYDYWGQGTQVTVSS	low polyreactivity
QVHLVQSGGGLVQAGGSLRLSCAASGSIYVAYEMGWYRQAPGKERELVAAINFDGTSTYYADSVKGRFTISRDNAKNTVYLQMNSLKPEDTAVYYCNKRVSPTYKGQYDYWGQGTQVTVSS	low polyreactivity
QVQLVESVGGLVQAGGSLRLSCAASGRTFSVYTMGWYRQAPGKERELVASINWSGGRTYYADSVKGRFTISRDNAKNTVYLQMNSLKPEDTAVYYCAATGWRTLYDYWGQGTLVTVSS	high polyreactivity
QVQLVESGGGLVQAGGSLRLSCAASGSIYRQYAMGWSRPAPGKERELVAASRRGTSTYYADSVKGRFTLSRDNAKNTVYLHMNSLKPDDSAVYYCAADTSWYSWWFDYWGQGTQVTVSS	low polyreactivity
QVQLVESGEGLVQAGGSLRLSCAASGSTFTYNAMGWYRHAPGKERELVAAIDWDGDTTYYADSVKGRFTISRDNAKNTVYLQMNSLKPEDTAVYYCAARPKYPYYARYDYWGQGTQVTVSS	high polyreactivity
QVQLVESGGGLVQAGGSLRLSCAASGYIFYVYAMGWYRQAPGKERELVAAINSGDITYYADSVKGRFTISRDNAKNTVYLQMNSLKPEDTAVYYCATVLILIYDYWGQGTQVTVSS	low polyreactivity

----------
- assay.summary: yeast display, Sf9 membrane polyspecificity reagent, FACS + sequencing; frameworks hold sequencing errors

sequence.code	polyreactivity (PSR sort gate)
QVQLVESGGGLVQAGGSLRISCADSGSIFTYNAMGWYRQAPGKERELVAAITSSSGSSTYADSVKGRFTISRDNAKYTVYLQMNSLKPEDTAVYYCAAPILSFPSPYVQYDYWGQGTQVTVSS	low polyreactivity
QVQLVESGGGLVQAGGSLRLSCAASGSTFDGNAMGWYRQAPGKERELVAAITYTTSSTYYADSVKGRFTISRDNAKNTVYLQMNSLKPEDTAVYYCAAGVNYRSPGVSKGRDYWGQGTQVTVSS	low polyreactivity
QVQLVESGGGLVQAGGSLRLSCAASGFTFNAYAMGWYRQAPGKERELVAAINVSGGITYYADSVKGRFTISRDIAKNTVYLQMNSLKPEDTAVYYCAADVEWTSRGSYYRYYYWGQGTQVTVSS	low polyreactivity
QLQLVESGGGLFQAGGRLRLSFAATGSTFGYYARGWYRQAPGKERELVAAISGSGGSTYYADSVKGRFTISRDNAKNTVYLQMNSLKPEDTAVYYCAATFHRLPKWGSPYYYWGQGTQVTVSS	high polyreactivity
QVQLVESGGGLVQAGGSLRLSCAASGFTFHYYTMGWYRQAPGKERELVASINYSGGRTYYADSVKGRFTISRDNAKNTVYLQMNSLKPEDTAVYYCNARYKSTYYYWGLGTQVTVSS	high polyreactivity
QVQLVESGGGLVQAGGRLRLSCAASGFTFRYYAMGWYRQAPGKERELVAAISGSGVSTYYADSVKGRFTISRDNAKNTVYLQMNSLKPEDTAVYYCAAGYPGHYYKYDYWGQGTQVTVSS	high polyreactivity
QVQLVESGGGLVQAGGSLRLSCAASGSTLWRYTMGWYRQAPGKVREFVADINRGSSTNYADSVKGRFTISRDNAKNSVYLQINSLKPEDTAVYYCAAAKVHYGYNSWYYYWRQGTQVTVSS	low polyreactivity
QVQLVESGGGLVQAGGTLRLSCAASGRTFDTNAMAWYRQAPGKERELVASITWVGGSTYYADSVKGRFTISRDNAKNTVYLQMNSLKPEDTAVYYCNRDRVSGGKYNYWGQGSQVTVSS	low polyreactivity
QVQLVESGGGIVQARGSLRLSCAASGRIFAPYAMGWYRQAPGKERELVAAIRISGDSTYYADSVKGRFTISRDNAKNTVYLQMNSLKPHDTAVYYCAAEYYILHWFGYAGYPAYNYWGQGTQVTVSS	high polyreactivity
